Source: the supplement of paper PMC12042874

Below, each entry is listed with its recorded amyloid nucleation score.
# assay notes: amyloid nucleation score (Sup35N fusion, yeast selection) (log enrichment); library NNK2; higher = more nucleation; inactive = no reads after selection;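 also: zero at mode of non-aggregating sequences after 7 days selection at 30°C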
API doc: respond with a numeric literal and nothing else, no unit.

Past entries and their recorded results:
{"substance": "RILIINLSPNEYMIGLH", "amyloid nucleation score": 4.3}
{"substance": "WTYGVTRLSSLCSAIDLSLG", "amyloid nucleation score": -0.598}
{"substance": "GIVVSIMHGIDSYGAIY", "amyloid nucleation score": -0.395}
{"substance": "AYGVIGWCWSYGERNWVHVR", "amyloid nucleation score": 0.377}

Entry INIRLFFHDFTRMGSELIGY ; amyloid nucleation score = 0.318

amyloid nucleation score for IVFLCSRKCNVNMYGL is 10.7
